System: NCI-H196 complex spheroid growth, percent test/control
Experiment: Anticancer human tumor NCI-H196 cell line growth inhibition [AhR];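 also: seven days of drug exposure starting three days after plating; 100% = DMSO vehicle control wells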
Conditions: second compound 3.16 µM; first compound 0.001 µM; hits give low values
measurement.name: viability, T/C (%)
Numbers only, in %.

For the 3 compounds below, give their viability, T/C values.
1. CC[C@@]1(O)C(=O)OCc2c1cc1n(c2=O)Cc2cc3c(CN(C)C)c(O)ccc3nc2-1 + CC(CO)NC(=O)c1cc(-c2ccc(Cl)cc2)nn(-c2cnn(C)c2)c1=O
2. Cn1ncnc1C1c2n[nH]c(=O)c3cc(F)cc(c23)NC1c1ccc(F)cc1 (stereo not drawn) + Cc1ccccc1N=Nc1ccc(NC(=O)c2ccnn2C)c(C)c1
3. CC[C@@]1(O)C(=O)OCc2c1cc1n(c2=O)Cc2cc3c(CN(C)C)c(O)ccc3nc2-1 + Cc1cncc(-c2nc(NCCc3c[nH]c4ccccc34)c3ncn(C(C)C)c3n2)c1

1. 111
2. 108
3. 101

The measurements presented in this section are drawn from PubChem BioAssay AID1919016.
